Tested on: A-431
Assay: Cell proliferation GI50, A-431 cells (Table 6)
Type: cell-based
Conditions: A-431 cells
QUANTITY_KIND: log10 of GI50 (log10 of the value in nM)

- MOLECULE: "CN1CCC2(CC1)CCN(c1ccc3nc4n(c3c1)C13CCC(CN(CCOc5c(cnn5C)-c5cc(cn(C)c5=O)C(=O)N4)C1)C3)C2 (single isomer, unassigned) [Example A88B]"
  log10 of GI50: 3.34
- MOLECULE: "CN1CCC2(CCN(c3ccc4nc5n(c4c3)C34CCC(CN(CCOc6c(cnn6C)-c6cc(cn(C)c6=O)C(=O)N5)C3)C4)C2)C1 (single isomer, unassigned) [Example A81B]"
  log10 of GI50: 2.82
- MOLECULE: "CCC1CCCOc2c(cnn2C)-c2cc(cn(C)c2=O)C(=O)Nc2nc3ccc(N4CCN(C)CC4)cc3n2C1 (single isomer, unassigned) [Example A16B]"
  log10 of GI50: 2.82
- MOLECULE: "Cn1ncc2c1OCCN1CC3CCC(C3)(C1)n1c(nc3ccc(N4CC(N5CCOCC5)C4)cc31)NC(=O)c1cc-2c(=O)n(C)c1 (single isomer, unassigned) [Example A69B]"
  log10 of GI50: 2.89
- MOLECULE: "CN(C)C1CN(c2ccc3nc4n(c3c2)C23CCC(CN(CCOc5c(cnn5C)-c5cc(cn(C)c5=O)C(=O)N4)C2)C3)C1 (single isomer, unassigned) [Example A65B]"
  log10 of GI50: 2.73
- MOLECULE: "CN1CCC2(CC1)CCN(c1ccc3nc4n(c3c1)C13CCC(CN(CCOc5c(cnn5C)-c5cc(cn(C)c5=O)C(=O)N4)C1)C3)C2 (single isomer, unassigned) [Example A88A]"
  log10 of GI50: 3.80
- MOLECULE: "CC(C)N1CCN(c2ccc3nc4n(c3c2)C23CCC(CN(CCOc5c(cnn5C)-c5cc(cn(C)c5=O)C(=O)N4)C2)C3)CC1 (single isomer, unassigned) [Example A108A]"
  log10 of GI50: 3.14
- MOLECULE: "Cn1ncc2c1OCCN1CC3CCC(C3)(C1)n1c(nc3ccc(N4CC(N5CCOCC5)C4)cc31)NC(=O)c1cc-2c(=O)n(C)c1 (single isomer, unassigned) [Example A69A]"
  log10 of GI50: 3.97
- MOLECULE: "CN1CCN(C2CCN(c3ccc4nc5n(c4c3)C34CCC(CN(CCOc6c(cnn6C)-c6cc(cn(C)c6=O)C(=O)N5)C3)C4)C2)CC1 (single isomer, unassigned) [Example A80B]"
  log10 of GI50: 2.68
- MOLECULE: "Cn1ncc2c1OCCN1CC3CCC(C3)(C1)n1c(nc3ccc(N4CCC(N5CC(F)C5)C4)cc31)NC(=O)c1cc-2c(=O)n(C)c1 (single isomer, unassigned) [Example A94A]"
  log10 of GI50: 3.22
- MOLECULE: "CN1CCC2(CN(c3ccc4nc5n(c4c3)C34CCC(CN(CCOc6c(cnn6C)-c6cc(cn(C)c6=O)C(=O)N5)C3)C4)C2)C(F)(F)C1 (single isomer, unassigned) [Example A91B]"
  log10 of GI50: 3.23
- MOLECULE: "Cn1ncc2c1OCCN1CC3CCC(C3)(C1)n1c(nc3ccc(N4CCC(N5CCOCC5)C4)cc31)NC(=O)c1cc-2c(=O)n(C)c1 (single isomer, unassigned) [Example A104B]"
  log10 of GI50: 3.00
- MOLECULE: "CC(C)N1CCN(c2ccc3nc4n(c3c2)C23CCC(CN(CCOc5c(cnn5C)-c5cc(cn(C)c5=O)C(=O)N4)C2)C3)CC1 (single isomer, unassigned) [Example A108B]"
  log10 of GI50: 2.51
- MOLECULE: "CN(C)C1CCN(c2ccc3nc4n(c3c2)C23CCC(CN(CCOc5c(cnn5C)-c5cc(cn(C)c5=O)C(=O)N4)C2)C3)CC1(F)F (single isomer, unassigned) [Example A97B]"
  log10 of GI50: 3.16
- MOLECULE: "CN1CCN(c2ccc3c(c2)nc2n3C34CCC(CN(CCOc5c(cnn5C)-c5cc(cn(C)c5=O)C(=O)N2)C3)C4)CC1 (centres unmarked) [Example A60A]"
  log10 of GI50: 3.82
- MOLECULE: "CN(C)C1CN(c2ccc3nc4n(c3c2)C23CCC(CN(CCOc5c(cnn5C)-c5cc(cn(C)c5=O)C(=O)N4)C2)C3)CC1F (single isomer, unassigned) [Example A84C]"
  log10 of GI50: 2.86
- MOLECULE: "CN(C)C1CN(c2ccc3nc4n(c3c2)C23CCC(CN(CCOc5c(cnn5C)-c5cc(cn(C)c5=O)C(=O)N4)C2)C3)CC1F (single isomer, unassigned) [Example A84A]"
  log10 of GI50: 3.60
- MOLECULE: "CN1CCN(C2CCN(c3ccc4nc5n(c4c3)C34CCC(CN(CCOc6c(cnn6C)-c6cc(cn(C)c6=O)C(=O)N5)C3)C4)CC2)CC1 (single isomer, unassigned) [Example A106A]"
  log10 of GI50: 3.40
- MOLECULE: "CN1CCN(C2CCN(c3ccc4nc5n(c4c3)C34CCC(CN(CCOc6c(cnn6C)-c6cc(cn(C)c6=O)C(=O)N5)C3)C4)C2)CC1 (single isomer, unassigned) [Example A80B1]"
  log10 of GI50: 3.79
- MOLECULE: "CN1CCN(C2CN(c3ccc4nc5n(c4c3)C34CCC(CN(CCOc6c(cnn6C)-c6cc(cn(C)c6=O)C(=O)N5)C3)C4)C2)CC1 (single isomer, unassigned) [Example A70B]"
  log10 of GI50: 2.87

---

As shown below, each of these molecules has a reported IC50 value.
Target: EGFR Exon19Del/T790M (Homo sapiens, UniProt P00533, DEL746-750/T790M)
Construct: purchased Carna Bio
Sequence (P00533 with tags, fused parts or gaps DEL746-750/T790M limits assumed): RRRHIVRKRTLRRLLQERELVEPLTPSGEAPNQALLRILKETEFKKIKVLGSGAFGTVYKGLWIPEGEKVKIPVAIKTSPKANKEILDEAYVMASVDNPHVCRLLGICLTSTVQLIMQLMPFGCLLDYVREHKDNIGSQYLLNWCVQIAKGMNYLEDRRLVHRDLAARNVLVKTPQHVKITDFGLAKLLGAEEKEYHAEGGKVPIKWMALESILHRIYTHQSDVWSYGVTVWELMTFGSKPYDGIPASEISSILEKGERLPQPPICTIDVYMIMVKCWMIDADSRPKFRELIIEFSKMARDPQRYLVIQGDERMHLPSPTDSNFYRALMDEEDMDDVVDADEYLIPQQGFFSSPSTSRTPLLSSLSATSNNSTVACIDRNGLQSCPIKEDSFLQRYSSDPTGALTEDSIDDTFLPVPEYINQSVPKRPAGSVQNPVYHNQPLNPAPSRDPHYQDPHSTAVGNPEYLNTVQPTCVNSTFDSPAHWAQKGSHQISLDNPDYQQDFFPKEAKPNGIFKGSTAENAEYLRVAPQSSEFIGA
Assay: Inhibition of EGFR Exon19Del/T790M biochemical enzymatic activity (HTRF)
Conditions: EGFR Exon19Del/T790M, 1 mM ATP, 1 h at room temperature, read-out: IC50 @Del19-T790M
Procedure: Biological Example 1: Inhibition of EGFR WT and Mutant Biochemical Enzymatic Activity The inhibition potency of compounds against these enzymes was assessed using Homogenous Time Resolved Fluorescence approach (HTRF, CisBio. Cat No. 62TKOPEJ). Inhibitory effects of the compounds were determined by measuring the enzymatic activity of EGFR enzyme phosphorylates 1 μM TK Substrate-biotin in the presence of 1 mM adenosine-5′-triphosphate (ATP) and varying concentrations of the test compound. […]

- MOLECULE: "Cc1cc2cc(n1)-c1cnn(C)c1OCCN1CC3CCC(CC3)(C1)n1c(nc3ccc(N(C)CCN(C)C)cc31)NC2=O"
  VALUE_UNITS: "nM"
  OPERATOR_SYMBOL: "="
  IC50: 6.6
- MOLECULE: "Cc1cc2cc(n1)-c1cnn(C)c1OCCN1CC3CCC(C3)(C1)n1c(nc3ccc(N4CC5CN(C)CC5C4)cc31)NC2=O (single isomer, unassigned) [Example B43B]"
  VALUE_UNITS: "nM"
  OPERATOR_SYMBOL: "="
  IC50: 5.2
- MOLECULE: "Cc1cc2cc(n1)-c1cnn(C)c1OCCN1CC3CCC(C3)(C1)n1c(nc3ccc(N4CC[C@H](N(C)C)C4)cc31)NC2=O (single isomer, unassigned) [Example B41B]"
  VALUE_UNITS: "nM"
  OPERATOR_SYMBOL: "="
  IC50: 4.9
- MOLECULE: "Cc1cc2cc(n1)-c1cnn(C)c1OCCN1CC3CCC(CC3)(C1)n1c(nc3ccc(N4CC5CCN(C)C5C4)cc31)NC2=O (centres unmarked)"
  VALUE_UNITS: "nM"
  OPERATOR_SYMBOL: "="
  IC50: 9
- MOLECULE: "Cc1cc2cc(n1)-c1cnn(C)c1OCCN1CC3CCC(C3)(C1)n1c(nc3ccc(N4CCC(N5CCOCC5)C4)cc31)NC2=O (single isomer, unassigned) [Example B44A2]"
  VALUE_UNITS: "nM"
  OPERATOR_SYMBOL: ">"
  IC50: 5000
- MOLECULE: "Cc1cc2cc(n1)-c1cnn(C)c1OCCN1CC3CCC(C3)(C1)n1c(nc3ccc(N4CCC5(CC4)CCN5C)cc31)NC2=O (single isomer, unassigned) [Example B54B]"
  VALUE_UNITS: "nM"
  OPERATOR_SYMBOL: "="
  IC50: 3.9
- MOLECULE: "Cc1cc2cc(n1)-c1cnn(C)c1OCCN1CC3CCC(C3)(C1)n1c(nc3ccc(N4CC(N5CCOCC5)C4)cc31)NC2=O (single isomer, unassigned) [Example B48B]"
  VALUE_UNITS: "nM"
  OPERATOR_SYMBOL: "="
  IC50: 6.9
- MOLECULE: "Cc1cc2cc(n1)-c1cnn(C)c1OCCN1CC3CCC(C3)(C1)n1c(nc3ccc(N4CCN(C5COC5)CC4)cc31)NC2=O (single isomer, unassigned) [Example B58A]"
  VALUE_UNITS: "nM"
  OPERATOR_SYMBOL: ">"
  IC50: 5000
- MOLECULE: "Cc1cc2cc(n1)-c1cnn(C)c1OCCN1CC3CCC(CC3)(C1)n1c(nc3ccc(N4CCC5(CCN(C)CC5)C4)cc31)NC2=O [Example B38]"
  VALUE_UNITS: "nM"
  OPERATOR_SYMBOL: "="
  IC50: 21
- MOLECULE: "Cc1cc2cc(n1)-c1cnn(C)c1OCCN1CC3CCC(C3)(C1)n1c(nc3ccc(N(C)CCCN(C)C)cc31)NC2=O (single isomer, unassigned) [Example B45B]"
  VALUE_UNITS: "nM"
  OPERATOR_SYMBOL: "="
  IC50: 2.8
- MOLECULE: "Cc1cc2cc(n1)-c1cnn(C)c1OCCN1CC3CCC(CC3)(C1)n1c(nc3ccc(N4CCN(C(C)C)CC4)cc31)NC2=O"
  VALUE_UNITS: "nM"
  OPERATOR_SYMBOL: "="
  IC50: 6.6
